Source: PubChem BioAssay AID1159580

- assayDetails: chemical genetic growth profiling, strain panel (AID 1159580);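 note: tested at 20 µM; growth read once vehicle control cultures reached saturation at 30 °C; 1 = growth at the plate median or of vehicle wells; lower values mean less growth of the strain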
- conditionLabel: S. cerevisiae deletion strains, growth OD, locus YOR184W, strain ser1, stronger effect = lower value
Out of some 5,500 compounds screened, about 2,000 (36%) were called active. Not shown: some 18% with an inconclusive outcome. The list shows a part of the results.
normalized growth listing for selected compounds.
Reply briefly: the number, and no unit.

compound | normalized growth
NC[C@@H]1O[C@H](O[C@@H]2[C@@H](CO)OC(O[C@@H]3[C@@H](O)[C@H](N)C[C@H](N)[C@H]3O[C@H]3O[C@H](CO)[C@@H](O)[C@H](O)[C@H]3N)[C@@H]2O)[C@H](N)[C@@H](O)[C@@H]1O (some centres undefined) | 0.972
COC1=CC(=O)C=C(OC)C1=O | 0.982
CC1Cc2ccccc2N1NC(=O)c1ccc(Cl)c(S(N)(=O)=O)c1 (centres undefined) | 0.982
Cc1c(C(N)=O)cc([N+](=O)[O-])cc1[N+](=O)[O-] | 0.986
Nc1ccc(S(=O)(=O)Nc2ncccn2)cc1 | 0.994
O=C(CCCN1CCC2(CC1)C(=O)NCN2c1ccccc1)c1ccc(F)cc1 | 0.983
CC1CCCC(C)N1NC(=O)c1ccc(Cl)c(S(N)(=O)=O)c1 (centres undefined) | 0.989
O=C(O)c1cc(O)ccc1O | 1

Give its normalized growth value. Item: `COc1ccc(-c2cc(=O)c3c(O)cc(O)c(-c4cc(-c5cc(=O)c6c(O)cc(O)cc6o5)ccc4OC)c3o2)cc1`
1.02

Would you kindly repeat that for `CCCc1nn(C)c2c(=O)[nH]c(-c3cc(S(=O)(=O)N4CCN(C)CC4)ccc3OCC)nc12` ?
0.988
